- system: UniProt:P00690
- Sequence (P00690 16-511): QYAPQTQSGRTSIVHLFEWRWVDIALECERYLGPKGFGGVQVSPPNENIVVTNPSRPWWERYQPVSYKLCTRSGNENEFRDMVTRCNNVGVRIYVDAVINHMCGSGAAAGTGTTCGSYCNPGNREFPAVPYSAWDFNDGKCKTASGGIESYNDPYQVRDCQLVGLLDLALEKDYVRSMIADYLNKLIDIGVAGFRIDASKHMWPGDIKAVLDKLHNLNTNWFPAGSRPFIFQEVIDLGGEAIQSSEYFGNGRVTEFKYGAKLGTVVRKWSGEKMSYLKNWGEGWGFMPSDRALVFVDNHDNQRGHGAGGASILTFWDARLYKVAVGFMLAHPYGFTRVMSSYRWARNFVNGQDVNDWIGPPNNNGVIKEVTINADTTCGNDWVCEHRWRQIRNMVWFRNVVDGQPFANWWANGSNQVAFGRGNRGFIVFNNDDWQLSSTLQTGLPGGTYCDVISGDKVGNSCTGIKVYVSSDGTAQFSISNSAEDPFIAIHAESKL
metric.name: IC50 (µM)
Expressed in µM, but write only the number.

Given the entry Oc1cc(O)cc(/C=C/c2ccc(O)c(O)c2)c1 [PIC, 3,3′,4′,5-trans-tetrahydroxystilbene] , report its measured IC50.
350

----------
- system: DPP-4 human recombinant enzyme (Homo sapiens, UniProt P27487)
- Sequence (P27487 whole entry): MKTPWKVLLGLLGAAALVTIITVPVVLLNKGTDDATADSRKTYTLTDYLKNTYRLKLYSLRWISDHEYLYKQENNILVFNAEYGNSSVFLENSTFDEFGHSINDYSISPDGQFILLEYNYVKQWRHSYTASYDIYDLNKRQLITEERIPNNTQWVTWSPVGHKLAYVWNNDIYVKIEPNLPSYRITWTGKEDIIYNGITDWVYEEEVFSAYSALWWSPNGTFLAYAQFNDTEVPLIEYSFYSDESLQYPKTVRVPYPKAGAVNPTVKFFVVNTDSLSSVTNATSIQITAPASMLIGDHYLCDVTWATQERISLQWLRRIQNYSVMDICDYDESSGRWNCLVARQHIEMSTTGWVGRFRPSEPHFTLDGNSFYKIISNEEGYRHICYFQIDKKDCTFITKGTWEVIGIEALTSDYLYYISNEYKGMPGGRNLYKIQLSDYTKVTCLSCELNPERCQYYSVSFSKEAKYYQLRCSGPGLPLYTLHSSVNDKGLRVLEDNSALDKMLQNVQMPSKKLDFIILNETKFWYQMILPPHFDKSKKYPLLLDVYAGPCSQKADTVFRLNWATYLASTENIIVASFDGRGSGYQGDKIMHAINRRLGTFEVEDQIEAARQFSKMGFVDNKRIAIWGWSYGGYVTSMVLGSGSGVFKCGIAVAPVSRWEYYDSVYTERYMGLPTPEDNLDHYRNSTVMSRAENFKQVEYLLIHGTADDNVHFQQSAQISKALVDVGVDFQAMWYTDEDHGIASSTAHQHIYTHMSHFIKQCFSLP
- assay.procedure: DPP-4 inhibition assay
- run.conditions: mean ± SD, triplicates
- Experimental: The DPP-4 inhibition assay was performed according to an established method. […] The reaction mixture was incubated for 30 min in the dark at 37 °C. Then, the fluorescent product was recorded at excitation/emission wavelengths of 350/450 nm using the microplate reader (Infinite® 200 PRO, TECAN, Männedorf, Switzerland). […] The percentage of the DPP-4 inhibition and IC50 was calculated as described in Section 3.3.1.
metric.name: IC50 (mM)
Expressed in mM, but write only the number.

Given the entry Oc1cc(O)cc(/C=C/c2ccc(O)c(O)c2)c1 [PIC, 3,3′,4′,5-trans-tetrahydroxystilbene] , report its measured IC50.
4.66

Origin of values: paper PMC9267955
